system: KHOS-NP; experiment: relative viability vs DMSO control (72 h) (fraction); higher = more viable cells; details: 0.00152 µM
Listed here: items and their measured relative viability.
measuredAttribute: relative viability

- itemSmiles: "Cc1cn(-c2cc(NC(=O)c3ccc(C)c(Nc4nccc(-c5cccnc5)n4)c3)cc(C(F)(F)F)c2)cn1"
  system: "KHOS-NP"
  measuredAttribute: "relative viability"
  value: 1.04
- itemSmiles: "C=CC(=O)Nc1cccc(Nc2nc(Nc3ccc(N4CCN(C(C)=O)CC4)cc3OC)ncc2C(F)(F)F)c1"
  system: "KHOS-NP"
  measuredAttribute: "relative viability"
  value: 1.11
- itemSmiles: "CCCS(=O)(=O)N[C@H]1C[C@@H](N(C)c2ncnc3[nH]ccc23)C1"
  system: "KHOS-NP"
  measuredAttribute: "relative viability"
  value: 1.04
- itemSmiles: "C[C@@H](Oc1cc(-c2cnn(C3CCNCC3)c2)cnc1N)c1c(Cl)ccc(F)c1Cl"
  system: "KHOS-NP"
  measuredAttribute: "relative viability"
  value: 1.09
- itemSmiles: "CCN(c1cc(-c2ccc(CN3CCOCC3)cc2)cc(C(=O)NCc2c(C)cc(C)[nH]c2=O)c1C)C1CCOCC1"
  system: "KHOS-NP"
  measuredAttribute: "relative viability"
  value: 1.06
- itemSmiles: "CC[C@@H]1C(=O)N(C)c2cnc(Nc3ccc(C(=O)N[C@H]4CC[C@H](N5CCN(CC6CC6)CC5)CC4)cc3OC)nc2N1C(C)C"
  system: "KHOS-NP"
  measuredAttribute: "relative viability"
  value: 1.07
- itemSmiles: "Cc1ccc(C(=O)OCc2ccc([C@@H](CN)C(=O)Nc3ccc4cnccc4c3)cc2)c(C)c1"
  system: "KHOS-NP"
  measuredAttribute: "relative viability"
  value: 1.03

----------
tested on: SK-ES-1; experiment: relative viability vs DMSO control (72 h) (fraction); higher = more viable cells; details: 0.00051 µM

- itemSmiles: "Cc1cccc(-c2[nH]c(CNc3ccccc3F)nc2-c2ccc3ncnn3c2)n1"
  system: "SK-ES-1"
  relative viability: 0.97
- itemSmiles: "Cc1ccc(C(=O)OCc2ccc([C@@H](CN)C(=O)Nc3ccc4cnccc4c3)cc2)c(C)c1"
  system: "SK-ES-1"
  relative viability: 0.999
- itemSmiles: "CCCCCCCCCCCCCCCCCCOP(=O)([O-])OC1CC[N+](C)(C)CC1"
  system: "SK-ES-1"
  relative viability: 1.06

----------
tested on: HS729; assay: relative viability vs DMSO control (72 h) (fraction); higher = more viable cells; conditions: 0.01372 µM
Please assign F whenever relative viability is at or above 0.9, and T whenever it is below.

- itemSmiles: "C1=N/C2=N/c3ccc(OCCN4CCCC4)c(c3)COC/C=C/COCc3cccc(c3)C(=C1)N2"
  classAssignment: "F"
- itemSmiles: "Cc1ccc(C(=O)OCc2ccc([C@@H](CN)C(=O)Nc3ccc4cnccc4c3)cc2)c(C)c1"
  classAssignment: "T"
- itemSmiles: "FC(F)(F)c1ccc(CNc2ccc(Cc3c[nH]c4ncc(Cl)cc34)cn2)cn1"
  classAssignment: "F"
- itemSmiles: "CNC(=O)c1cc(Oc2ccc(NC(=O)Nc3ccc(Cl)c(C(F)(F)F)c3)cc2)ccn1"
  classAssignment: "F"
- itemSmiles: "COc1cc2ncnc(Nc3cccc(Cl)c3F)c2cc1OC(=O)N1CCN(C)C[C@H]1C"
  classAssignment: "F"
- itemSmiles: "CC[C@@H]1C(=O)N(C)c2cnc(Nc3ccc(C(=O)N[C@H]4CC[C@H](N5CCN(CC6CC6)CC5)CC4)cc3OC)nc2N1C(C)C"
  classAssignment: "T"
- itemSmiles: "Cc1nc(Nc2ncc(C(=O)Nc3c(C)cccc3Cl)s2)cc(N2CCN(CCO)CC2)n1"
  classAssignment: "T"
